Origin of measurements: patent US20220242969A1

Molecular target: T1, prostate specific antigen (PSA) (human, UniProt P07288 25-261, limits assumed)
T1 construct: The antigen of the SPR study is only called 'PSA' (169 ug/ml, provided by Diaprost AB, Mw 30 000 Da); also called kallikrein III
T1 sequence (P07288 25-261 limits assumed): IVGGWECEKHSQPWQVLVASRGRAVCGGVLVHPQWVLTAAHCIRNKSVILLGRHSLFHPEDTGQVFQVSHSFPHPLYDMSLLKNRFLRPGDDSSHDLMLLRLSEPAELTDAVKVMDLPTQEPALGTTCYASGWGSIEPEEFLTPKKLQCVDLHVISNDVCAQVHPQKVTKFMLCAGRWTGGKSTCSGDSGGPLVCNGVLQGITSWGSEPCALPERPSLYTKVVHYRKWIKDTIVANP
Assay: SPR (Biacore 3000), PSA amine-coupled on CM4 chip, antibody in solution
Consider the following binders; for each one, report its Kd.
One number for each entry, in nM.

Provide Kd for all items below, preserving their order.
1. h5A10-DTPA (antibody, human IgG1, kappa, V domains shown, DTPA chelator conjugated to the antibody; sites and chain not stated, Humanised 5A10 IgG1/kappa conjugated with the chelator DTPA; also called h5A10-DTPA (141203); DTPA-h5A10) VH: QVTLKESGPALVKPTQTLTLTCTFSGFSLSTTGMGVSWIRQPPGKALEWLAHIYWDDDKRYSTSLKTRLTISEDSSKNQVVLTMTNMDPVDTATYYCARKGYYGYFDYWGQGTLVTVSS VL: DIQMTQSPSSLSASVGDRVTVTCRASQNVNTDVAWYQQKPGKAPKALIFSTSYLQSGVPSRFSGSGSGTDFTLTISSLQPEDFATYYCQQYSNYPLTFGQGTKVEIKR
2. humanised monoclonal antibody 5A10 (h5A10) (antibody, human IgG1, kappa, V domains shown, also called hu5A10 (141203); h5A10 (141203)) VH: QVTLKESGPALVKPTQTLTLTCTFSGFSLSTTGMGVSWIRQPPGKALEWLAHIYWDDDKRYSTSLKTRLTISEDSSKNQVVLTMTNMDPVDTATYYCARKGYYGYFDYWGQGTLVTVSS VL: DIQMTQSPSSLSASVGDRVTVTCRASQNVNTDVAWYQQKPGKAPKALIFSTSYLQSGVPSRFSGSGSGTDFTLTISSLQPEDFATYYCQQYSNYPLTFGQGTKVEIKR

Outgoing:
0.01
0.01

Report Kd for every entry below.
1. h5A10-DOTA (antibody, human IgG1, kappa, V domains shown, DOTA chelator conjugated to the antibody; sites and chain not stated, Humanised 5A10 IgG1/kappa conjugated with the chelator DOTA; also called h5A10-DOTA (141211)) VH: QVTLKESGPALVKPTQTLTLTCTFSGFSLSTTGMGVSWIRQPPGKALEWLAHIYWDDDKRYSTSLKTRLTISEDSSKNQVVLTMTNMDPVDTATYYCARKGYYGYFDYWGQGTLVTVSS VL: DIQMTQSPSSLSASVGDRVTVTCRASQNVNTDVAWYQQKPGKAPKALIFSTSYLQSGVPSRFSGSGSGTDFTLTISSLQPEDFATYYCQQYSNYPLTFGQGTKVEIKR
2. h5A10-DFO (antibody, human IgG1, kappa, V domains shown, DFO (deferoxamine) chelator conjugated to the antibody; sites and chain not stated, Humanised 5A10 IgG1/kappa conjugated with the chelator DFO; also called h5A10-DFO (141203)) VH: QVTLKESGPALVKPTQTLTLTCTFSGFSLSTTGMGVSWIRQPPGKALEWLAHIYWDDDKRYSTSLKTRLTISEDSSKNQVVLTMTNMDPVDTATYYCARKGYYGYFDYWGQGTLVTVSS VL: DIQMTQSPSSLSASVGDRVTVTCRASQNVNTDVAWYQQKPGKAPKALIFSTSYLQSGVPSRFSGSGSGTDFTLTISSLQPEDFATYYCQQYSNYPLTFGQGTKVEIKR

Outgoing:
1. 0.02
2. 0.05
